tested on: Mus musculus; test: Potentiation of acetone-induced cold allodynic response in Swiss CD-1 mouse chronic constriction injury model applied topically 20 mins prior to acetone-challenge measured up to 2 mins post acetone-challenge; format: functional, organism-based
Calls of active or inactive are those of the source. No cut-off for these calls is given here.
In this exercise, the only acceptable responses are active, inactive

Enquiry: Short answer needed: outcome of this test for "Cc1cc(NC(C)C)no1" ?
Return: active

Enquiry: Short answer needed: outcome of this test for "CC(C)[C@@H]1CC[C@@H](C)C[C@H]1O" ?
Return: inactive

Enquiry: Short answer needed: outcome of this test for "Cc1cc(NCC(C)C)no1" ?
Return: active

Enquiry: Short answer needed: outcome of this test for "Cc1cc(NCc2ccccc2)no1" ?
Return: inactive

Enquiry: Short answer needed: outcome of this test for "Cc1cc(NCCC(C)C)no1" ?
Return: active

Enquiry: Short answer needed: outcome of this test for "CCCCNc1cc(C)on1" ?
Return: active
